# experiment-description: NCI Yeast Anticancer Drug Screen. Data for the bub3 strain (AID 167)
# applied-conditions: S. cerevisiae bub3 mutant strain, at 11.0 µM, stronger effect = higher value
Compounds without any hit were thinned out: in the full panel of roughly 79,000, 15% have a hit.
quantity-name: growth inhibition (%)

| compound | units-of-measure | observed-result |
| --- | --- | --- |
| Nc1nc2ccc(NCc3ccc(C(=O)NC(CCC(=O)O)C(=O)O)cc3)cc2c(=O)[nH]1 (stereo not given) | % | -4 |
| CCCCCCCCCCCC(O)S(=O)(=O)O (stereo not given) | % | -2 |
| COc1ccc(C(NCCNC(c2ccc(OC)c(OC)c2)c2cc3c(cc2O)OCO3)c2cc3c(cc2O)OCO3)cc1OC (stereo not given) | % | 0 |
| COC(=O)NC1C(C)OC(OC2C/C=C(/C)C3C=CC4C(OC5CC(OC6CC(O)C(OC7CC(O)C(OC)C(C)O7)C(C)O6)C(O)C(C)O5)C(C)CC(C)C4C3(C)/C(O)=C3\C(=O)OC4(CC(C)C(CO)=CC4/C=C\2C)C3=O)CC1(C)[N+](=O)[O-] (stereo not given) | % | 13 |
| O=C1c2ccccc2C(=O)c2cc(CCl)ccc21 | % | 19 |
